Exercise: for every item that follows, state its recorded IC50.
System: Marburgvirus
Test: microbe, parasite or virus in culture
Conditions: Orthomarburgvirus, Musoke, A549, 48 h
Give the quantity in nM, number only.

Q: Return reported IC50; argument: Oc1ccc2c(Oc3ccc(OCCN4CCCCC4)cc3)c(-c3ccccc3)sc2c1
Ans: 670

Q: I have this molecule here, COc1ccc2c(c1)CCC(c1ccccc1)=C2c1ccc(OCCN2CCCC2)cc1 [NAFOXIDINE] , and I need its recorded IC50.
Ans: 1300

* * *

Tested on: Marburgvirus
Experiment: microbe, parasite or virus in culture
Conditions: Orthomarburgvirus, Musoke, A549, 48 h
Kindly supply the reported IC50 values for the records listed here.
Please respond with the number in µM and leave the unit unwritten.

Q: Could you share which IC50 value was measured for CC/C(=C(/c1ccc(NC(=O)C2CCN(C)CC2)cc1)c1ccc(OCCN2CCCC2)cc1)c1ccccc1 ?
Ans: 0.54

Q: If you can, please state the reported IC50 value of CC/C(=C(/c1ccc(NC(=O)CN2CCOCC2)cc1)c1ccc(OCCN2CCOCC2)cc1)c1ccccc1 .
Ans: 4.23

Q: Tell me the measured IC50 of CC/C(=C(/c1ccc(N)cc1)c1ccc(OCCN2CCCC2)cc1)c1ccccc1 , please.
Ans: 1.07

Q: Find the recorded IC50 belonging to COc1ccc2c(Oc3ccc(OCCN4CCCCC4)cc3)c(-c3ccccc3)sc2c1 and report it.
Ans: 3.18

Q: # lookup: IC50 of COc1ccc(-c2sc3cc(OC)ccc3c2Oc2ccc(OCCN3CCC(CCNC(=O)CCCCNC(=O)OC(C)(C)C)CC3)cc2)cc1
Ans: 0.6

Q: // lookup IC50 for CC/C(=C(/c1ccc(NC(=O)C2CCN(C)C2)cc1)c1ccc(OCCN2CCCC2)cc1)c1ccccc1 (stereo not drawn)
Ans: 0.72

Q: What does the data say about its IC50? Entry: Cc1c(-c2ccc(O)cc2)nn(-c2ccc(O)cc2)c1-c1ccc(OCCN2CCCCC2)cc1
Ans: 1.19

Q: Which IC50 value is on record for Cc1c(-c2ccc(O)cc2)n(Cc2ccc(OCCN3CCCCCC3)cc2)c2ccc(O)cc12 ?
Ans: 3.83
